studyTarget: Drosophila OR47a (Drosophila melanogaster, UniProt P81921)
Construct: expressed in transfected cells
Sequence (P81921 whole entry): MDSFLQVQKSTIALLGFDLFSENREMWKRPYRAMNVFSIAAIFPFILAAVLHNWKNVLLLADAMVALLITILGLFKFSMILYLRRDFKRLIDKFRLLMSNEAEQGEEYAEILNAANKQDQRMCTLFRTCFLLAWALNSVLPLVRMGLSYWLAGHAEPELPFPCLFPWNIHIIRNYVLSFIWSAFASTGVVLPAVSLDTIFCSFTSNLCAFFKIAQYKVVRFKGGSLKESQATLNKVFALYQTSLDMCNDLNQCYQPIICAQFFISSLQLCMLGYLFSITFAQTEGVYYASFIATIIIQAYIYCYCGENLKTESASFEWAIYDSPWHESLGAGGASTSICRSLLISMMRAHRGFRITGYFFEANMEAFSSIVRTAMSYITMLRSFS
Sequence (Q9VNB5 whole entry partner): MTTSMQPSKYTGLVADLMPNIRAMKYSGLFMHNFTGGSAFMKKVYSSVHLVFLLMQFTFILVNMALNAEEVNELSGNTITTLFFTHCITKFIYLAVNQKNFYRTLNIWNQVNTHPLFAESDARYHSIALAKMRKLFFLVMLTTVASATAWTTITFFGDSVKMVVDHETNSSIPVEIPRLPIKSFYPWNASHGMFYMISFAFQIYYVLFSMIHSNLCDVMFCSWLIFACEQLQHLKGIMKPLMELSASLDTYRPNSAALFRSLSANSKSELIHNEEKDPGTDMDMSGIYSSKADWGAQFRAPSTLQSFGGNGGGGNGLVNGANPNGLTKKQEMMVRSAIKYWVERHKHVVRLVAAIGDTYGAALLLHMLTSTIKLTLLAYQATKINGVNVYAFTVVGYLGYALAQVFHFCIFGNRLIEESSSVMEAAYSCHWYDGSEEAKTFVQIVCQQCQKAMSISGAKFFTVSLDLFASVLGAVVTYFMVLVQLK
experimentNotes: Calcium ion fluorescence (GCaMP6) assay, OR47a stable HEK293 cell line
Assay type: cell-based
protocolConditions: HEK293, read-out: OR47a response (VUAA1-normalized response)
# key: entry, value: activation at 100 µM
Entry rule: numbers only, all in %.

Worked examples follow.
molecule	readout	measuredNumber
CCCCCC(C)O (stereo not shown)	activation at 100 µM	0
C=C1CC/C=C(\C)CC[C@@H]2[C@@H]1CC2(C)C [(-)-trans-caryophyllene]	activation at 100 µM	0
CC(=O)c1ccccc1	activation at 100 µM	0
CCCCC(C)O (stereo not shown)	activation at 100 µM	5
CCCCCCCCC(CO)CCCCCC (stereo not shown)	activation at 100 µM	0

In: What value of activation at 100 µM has been recorded for this entry: CCCCCC(=O)OCC [ethyl hexanoate]
Out: 67

In: What value of activation at 100 µM has been recorded for this entry: CCCCCC(=O)CC
Out: 73

In: What value of activation at 100 µM has been recorded for this entry: Cc1cccc(O)c1
Out: 0

In: What value of activation at 100 µM has been recorded for this entry: CCCCCC(C)=O
Out: 46

In: What value of activation at 100 µM has been recorded for this entry: C=CC(O)CCCCC (stereo not shown)
Out: 14

In: What value of activation at 100 µM has been recorded for this entry: CC1=CC[C@@H](C(C)(C)O)CC1
Out: 0

In: What value of activation at 100 µM has been recorded for this entry: CCCC(=O)OCC [ethyl butyrate]
Out: 0

In: What value of activation at 100 µM has been recorded for this entry: C=C1CC[C@H]2O[C@]2(C)CC[C@@H]2[C@@H]1CC2(C)C [(-)-caryophyllene oxide]
Out: 0

In: What value of activation at 100 µM has been recorded for this entry: CC(=O)OCCC(C)C [isopentyl acetate]
Out: 18

In: What value of activation at 100 µM has been recorded for this entry: CCCCCCCO
Out: 0

In: What value of activation at 100 µM has been recorded for this entry: CCCCCCCCCC=O
Out: 0

In: What value of activation at 100 µM has been recorded for this entry: O=Cc1ccccc1
Out: 0

In: What value of activation at 100 µM has been recorded for this entry: Cc1ccc(C)c(C)c1
Out: 0

In: What value of activation at 100 µM has been recorded for this entry: CCCCCO
Out: 0

---

# key: entry, value: Average response
studyTarget: Drosophila OR49b (Drosophila melanogaster)
Construct: expressed in transfected cells
experimentNotes: cell-based
protocolConditions: OR49b cell line; odorant cc. 100 µM; mean of biological replicates
When you answer, write just the number.

Worked examples follow.
compound	readout	measuredNumber
C=CC(O)C/C=C\CC (stereo not shown)	Average response	0.00
COC(=O)c1ccccc1 [methyl benzoate]	Average response	0.05
CCCCCC(O)CC (stereo not shown)	Average response	0.055

Next:
In: What value of Average response has been recorded for this entry: CCCCCO
Out: 0.0167

---

studyTarget: Drosophila OR49b (Drosophila melanogaster, UniProt Q9V6H2)
Construct: expressed in transfected cells
Sequence (Q9V6H2 whole entry, one chain of several): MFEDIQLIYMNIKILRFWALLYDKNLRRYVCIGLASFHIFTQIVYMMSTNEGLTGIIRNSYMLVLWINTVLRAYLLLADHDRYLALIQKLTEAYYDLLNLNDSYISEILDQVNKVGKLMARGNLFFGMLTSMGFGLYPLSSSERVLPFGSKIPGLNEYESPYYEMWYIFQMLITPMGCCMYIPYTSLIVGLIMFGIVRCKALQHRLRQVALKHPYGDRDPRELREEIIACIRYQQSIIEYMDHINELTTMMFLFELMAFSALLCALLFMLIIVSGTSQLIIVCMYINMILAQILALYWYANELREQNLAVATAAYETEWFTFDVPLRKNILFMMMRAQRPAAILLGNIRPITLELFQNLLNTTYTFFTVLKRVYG
experimentNotes: cell-based
protocolConditions: OR49b cell line; odorant cc. 10 µM; mean of biological replicates
readout: Average response
When you answer, write just the number.

Worked examples follow.
molecule	Average response
Cc1ccccc1	0.00
CCc1ccccc1	0.09
C=C(C)[C@H]1CC=C(C)CC1 [(R)-(+)-limonene]	0.00
CC1=CC[C@@H](C(C)(C)O)CC1	0.00
CCCCCC(C)=O	0.00
CCCCCCCO	0.00
C=C1CCC2(C(C)C)CC12 (centres unmarked)	0.00
Cc1cccc(O)c1	0.13

In: What value of Average response has been recorded for this entry: C=CC(O)CCCCC (centres unmarked)
Out: 0.0174

In: What value of Average response has been recorded for this entry: CCCCCCCCCC=O
Out: 0.00

In: What value of Average response has been recorded for this entry: Cc1ccc(C)c(C)c1
Out: 0.00

In: What value of Average response has been recorded for this entry: CCCCCCCCCCCCCC
Out: 0.05

In: What value of Average response has been recorded for this entry: CCCCCCCCC(CO)CCCCCC (centres unmarked)
Out: 0.00

In: What value of Average response has been recorded for this entry: CC1=CCC2CC1C2(C)C (centres unmarked)
Out: 0.00

In: What value of Average response has been recorded for this entry: CCCCCOC(C)=O [pentyl acetate]
Out: 0.0108

In: What value of Average response has been recorded for this entry: Cc1ccccc1C
Out: 0.09

In: What value of Average response has been recorded for this entry: CC(=O)OCCC(C)C [isopentyl acetate]
Out: 0.00

Origin of the recorded values: paper PMC10709440
